# Protocol Notes: Human plasma stability (HPLC-MS/MS)
# Protocol Conditions: human, plasma, Human plasma stability (t1/2), oxytocin analogs table, 37° C.
Positions of bridges follow the written chain, without caps; N, C: chain ends. Non-standard residues stand in square brackets, D forms with d. Residues, ends and D or L forms follow the SMILES beside them. ξ: configuration not given here. *: point of attachment. X1 = CCN([C@@H](C)C(=O)C[C@@H](CCCCNC(=O)CCC(F)(F)C(F)(F)C(F)(F)C(F)(F)C(F)(F)C(F)(F)C(F)(F)C(F)(F)F)C(=O)NCC(N)=O)*; Ile(3ξ) = CCC(C)[C@H](N)C(=O)O
Quantity Name: half-life at 1 μM (h)
Answer with a number only, understood to be in h.

Give the measured half-life at 1 μM of CCC(C)[C@@H]1NC(=O)[C@H](Cc2ccc(O)cc2)NC(=O)[C@@H](N)CSSC[C@@H](C(=O)N(CC)[C@@H](C)C(=O)C[C@@H](CCCCNC(=O)CCC(F)(F)C(F)(F)C(F)(F)C(F)(F)C(F)(F)C(F)(F)C(F)(F)C(F)(F)F)C(=O)NCC(N)=O)NC(=O)[C@H](CC(N)=O)NC(=O)[C@H](CCC(N)=O)NC1=O (stereo partly shown) [SR-11-74] (H-CY[Ile(3ξ)]QNC-X1; disulfide 1-6) .
3.98

----------
# Protocol Notes: in vitro
# Protocol Conditions: human, plasma, Human plasma stability (t1/2)
Quantity Name: half-life at 1 μM (h)
Answer in h, number only, no unit symbol.

May I ask what half-life at 1 μM has been recorded for CC[C@H](C)[C@@H]1NC(=O)[C@H](Cc2ccc(O)cc2)NC(=O)[C@@H](N)CSSC[C@@H](C(=O)N2CCC[C@H]2C(=O)N[C@@H](CC(C)C)C(=O)NCC(N)=O)NC(=O)[C@H](CC(N)=O)NC(=O)[C@H](CCC(N)=O)NC1=O [Oxytocin, reference compound] ?
2.45

----------
# Lookup of reported solubility at 2 min keyed by entry
# Protocol Notes: Solubility study in water by visual observation

>  <Compound>
CC[C@H](C)[C@H](NC(=O)[C@H](Cc1ccc(O)cc1)NC(=O)[C@@H](NC(=O)[C@H](CCCNC(=N)N)NC(=O)[C@@H](N)CC(=O)O)C(C)C)C(=O)N[C@@H](Cc1cnc[nH]1)C(=O)N1CCC[C@H]1C(=O)N[C@@H](Cc1ccccc1)C(=O)O [Angiotensin II, reference compound]

>  <Quantity Name>
solubility at 2 min

>  <Observed Value>
> 100 µM

$$$$

// next entry
Which solubility at 2 min reading was recorded for the compound "CC[C@H](C)[C@H](NC(=O)[C@H](Cc1ccc(O)cc1)NC(=O)[C@@H](NC(=O)[C@H](CCCNC(=N)N)NC(=O)[C@H](CC(=O)O)NC(=O)CCC(F)(F)C(F)(F)C(F)(F)C(F)(F)C(F)(F)C(F)(F)C(F)(F)C(F)(F)F)C(C)C)C(=O)N[C@@H](Cc1cnc[nH]1)C(=O)N1CCC[C@H]1C(=O)N[C@@H](Cc1ccccc1)C(=O)O" ?
> 100 µM
